# protocol-notes: fluorescence interference in NS3h assay format, artefact control for HCV NS3 helicase inhibitor project, biochemical, NIH Clinical Collection (AID 743272);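 also: HCV NS3 helicase with a Cy5 labelled single stranded DNA probe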
# experimental-setup: fluorescence interference counterscreen
The source made the active and inactive calls. No rule for the calls is given here.
Hello, when you answer, please use one of the following outcomes: active, inactive

## Input GET /call?item= "CC(=O)NCCCCCCNC(C)=O" returns the recorded outcome of this test.
## Output inactive

## Input GET /call?item= O=c1[nH]c(=O)n(C2CCCO2)cc1F (stereo not drawn) returns the recorded outcome of this test.
## Output inactive

## Input GET /call?item= "C=CC[C@@H]1C=C(C)C[C@H](C)C[C@H](OC)[C@H]2O[C@@](O)(C(=O)C(=O)N3CCCC[C@H]3C(=O)O[C@H](/C(C)=C/[C@@H]3CC[C@@H](O)[C@H](OC)C3)[C@H](C)[C@@H](O)CC1=O)[C@H](C)C[C@@H]2OC" returns the recorded outcome of this test.
## Output inactive

## Input GET /call?item= "CN(C)S(=O)(=O)c1ccc2c(c1)/C(=C\CCN1CCNCC1)c1ccccc1S2" returns the recorded outcome of this test.
## Output inactive

## Input GET /call?item= "CCC1=C[C@H]2CN(C1)Cc1c([nH]c3ccccc13)[C@@](C(=O)OC)(c1cc3c(cc1OC)N(C)[C@H]1[C@@](O)(C(=O)OC)[C@H](OC(C)=O)[C@]4(CC)C=CCN5CC[C@]31[C@@H]54)C2" returns the recorded outcome of this test.
## Output active

## Input GET /call?item= "C=CC1=C(C(=O)O)N2C(=O)[C@@H](NC(=O)C(=NO)c3csc(N)n3)[C@H]2SC1" returns the recorded outcome of this test.
## Output inactive

## Input GET /call?item= "O=C(O)C[C@H](O)C[C@H](O)/C=C/c1c(C2CC2)nc2ccccc2c1-c1ccc(F)cc1" returns the recorded outcome of this test.
## Output inactive

## Input GET /call?item= "CO[C@H]1O[C@@H]2O[C@@]3(C)CC[C@H]4[C@H](C)CC[C@@H]([C@H]1C)[C@@]24OO3" returns the recorded outcome of this test.
## Output inactive

----------
# protocol-notes: sensitizers of A549 cells to miR-34 induction, primary screen, imaging, A549 dox-inducible miR-34, nuclei and caspase counts (AID 1347080); also: test concentration not given here
# experimental-setup: A549 miR-34 inducible, Hoechst nuclei count, 48 h; measured here: relative caspase fold change +Dox/-Dox
Would you kindly list fold change for each of these molecules?
// no unit string in output, number only

## Input Would you kindly share the measured fold change for C[C@]12CCC(=O)C=C1CCC1C2[C@@H](O)C[C@@]2(C)C1CC[C@]2(O)C(=O)COC(=O)CCC(=O)O (stereo not given in full) ?
## Output 0.842

## Input Would you kindly share the measured fold change for "CO[C@H]1/C=C/O[C@@]2(C)Oc3c(C)c(O)c4c(O)c(c5c(c4c3C2=O)NC2(CCN(CC(C)C)CC2)N=5)=NC(=O)/C(C)=C\C=C\[C@H](C)[C@H](O)[C@@H](C)[C@@H](O)[C@@H](C)[C@H](OC(C)=O)[C@@H]1C" ?
## Output 1.58

## Input Would you kindly share the measured fold change for C[C@]12C=CC(=O)C=C1CCC1C2[C@@H](O)C[C@@]2(C)C1CC[C@]2(O)C(=O)COP(=O)(O)O (stereo not given in full) ?
## Output 1.09

## Input Would you kindly share the measured fold change for Cc1c(C)c2c(c(C)c1O)CCC(C)(C(=O)O)O2 (stereo not given) ?
## Output 1.44

## Input Would you kindly share the measured fold change for CCc1cc(Cl)c(OC)c(C(=O)NCC2CCCN2CC)c1O (stereo not given) ?
## Output 0.822

## Input Would you kindly share the measured fold change for O=C(O)C1=C(CSc2nnnn2CS(=O)(=O)O)CS[C@@H]2C(NC(=O)[C@H](O)c3ccccc3)C(=O)N12 (stereo not given in full) ?
## Output 4.26

## Input Would you kindly share the measured fold change for CCCCCC(=O)O[C@]1(C(C)=O)CCC2C3CCC4=CC(=O)CC[C@]4(C)C3CC[C@@]21C (stereo not given in full) ?
## Output 1.72

## Input Would you kindly share the measured fold change for CN[C@@H]1C(OC2[C@H](O[C@H]3[C@H](O)[C@@H](O)[C@H](N=C(N)N)[C@@H](O)[C@@H]3N=C(N)N)OC(C)[C@]2(O)CO)OC(CO)C(O)C1O (stereo not given in full) ?
## Output 1.34

## Input Would you kindly share the measured fold change for "CO[C@@H]1[C@@H](O[C@@H]2O[C@H](C)[C@@H](O[C@H]3C[C@@](C)(O)[C@H](O)[C@H](C)O3)[C@H](N(C)C)[C@H]2O)[C@@H](CC=O)C[C@@H](C)[C@@H](O[C@H]2CC[C@H](N(C)C)[C@@H](C)O2)/C=C/C=C/C[C@H](C)OC(=O)C[C@H]1O" ?
## Output 4.68

## Input Would you kindly share the measured fold change for "CC(C)[C@@H]1CC[C@@H](C)C[C@H]1O" ?
## Output 2.52

## Input Would you kindly share the measured fold change for NC(N)=NCC1COC2(CCCCC2)O1 (stereo not given) ?
## Output 1.21

## Input Would you kindly share the measured fold change for "CCC[C@@H]1C[C@@H](C(=O)N[C@H]([C@H]2O[C@H](SC)[C@H](O)[C@@H](O)[C@H]2O)[C@H](C)O)N(C)C1" ?
## Output 2.92

## Input Would you kindly share the measured fold change for "CO[C@H](C(=O)[C@@H](O)[C@@H](C)O)[C@@H]1Cc2cc3cc(O[C@H]4C[C@@H](O[C@H]5C[C@@H](O)[C@H](O)[C@@H](C)O5)[C@@H](O)[C@@H](C)O4)c(C)c(O)c3c(O)c2C(=O)[C@H]1O[C@H]1C[C@@H](O[C@H]2C[C@@H](O[C@H]3C[C@](C)(O)[C@H](O)[C@@H](C)O3)[C@H](O)[C@@H](C)O2)[C@H](O)[C@@H](C)O1" ?
## Output 0.963

## Input Would you kindly share the measured fold change for CCCCC(=O)O[C@H]1CCC2C3CCc4cc(O)ccc4C3CC[C@@]21C (stereo not given in full) ?
## Output 1.71

## Input Would you kindly share the measured fold change for O=c1[nH]c(=O)n(C2C[C@@H](O)[C@@H](CO)O2)cc1F (stereo not given in full) ?
## Output 1.5
